test system: KM12; test: NCI tumour cell line growth inhibition, 48 h
Calls of active or inactive are those of the source. No stated cut-off is given here; in the data, active = GI50 up to about 1.1 µM and inactive = higher.
// allowed return values: active, inactive

Please review the following examples before continuing.
molecule: CCN1CCC(C)OP1(=O)Cc1ccccc1 (configuration not stated)
system.under.test: KM12
group: inactive
//
molecule: Cc1cc2ccccc2n2c1nc1ccc(O)cc12
system.under.test: KM12
group: inactive
//
molecule: Cc1ccc2nc(-c3ccc(N)c(I)c3)sc2c1
system.under.test: KM12
group: inactive
//
molecule: CCN(CC)CCNc1n[n+]([O-])c2ccccc2[n+]1[O-]
system.under.test: KM12
group: inactive
//
molecule: CN(C)c1ccc(/C=c2\c3ccccc3n3c2cc(-c2ccccc2)[n+]3C)cc1
system.under.test: KM12
group: active

I'd appreciate the recorded outcome for COC(=O)c1ccc(/C=C2\N=C(C)OC2=O)cc1 from this test. inactive

###

system: OVCAR-4; assay: NCI tumour cell line growth inhibition, 48 h
Active and inactive are the calls of the source. No stated cut-off is given here; in the data, active = GI50 up to about 1.1 µM and inactive = higher.
readout.kind: GI50

molecule: COc1ccc(-c2cc(O)c3nc4ccccc4n3c2)cc1
GI50: > 100 µM (inactive)

Fill blank: measured GI50 of the molecule N=c1c2c(=S)n(-c3ccccc3)c(=S)n(-c3ccccc3)c2nc(SCCCN2CCN(c3cccc(Cl)c3)CC2)n1-c1ccccc1 is ____. > 100 µM (inactive)

Report GI50 for CCOCCOc1ccc(OCCOCC)cc1 please. 6.04 µM (inactive)

Param item = CCOC(=O)C1(C/C=C/CCl)CCCC1=O (stereo not given) ; retrieve measured GI50. 29.6 µM (inactive)

Please look up its GI50: COc1ccc2[nH]c3c(O)nncc3c2c1 > 100 µM (inactive)

Suppose we examine the molecule CC[C@H]1C[C@@H](O)[C@@H]2[C@H](O)[C@H](O)CN2C1 ; what GI50 value has been reported? > 100 µM (inactive)

###

tested on: SK-OV-3; assay: NCI tumour cell line growth inhibition, 48 h
Calls of active or inactive are those of the source. No stated cut-off is given here; in the data, active = GI50 up to about 1.1 µM and inactive = higher.
Listed here: items and their measured GI50.

Illustrative cases are given below, each with its answer.
molecule: N#C/C(=C\c1cc(Cl)cc(Cl)c1)c1ccccn1
GI50: 4.52 µM (inactive)
//
molecule: COc1cc2nc(-c3ccccc3)cc(O)c2c(OC)c1OC
GI50: > 100 µM (inactive)
//
molecule: CC[C@H]1C[C@@H](O)[C@@H]2[C@H](O)[C@H](O)CN2C1
GI50: > 100 µM (inactive)
//
molecule: CC(C)(C)c1cc(CCC(=O)Nc2ccc(Cl)cc2)nc(S)n1
GI50: > 100 µM (inactive)

Quick one: GI50 of O=C1C=CC(=O)c2c1ccc1c3ccccc3n(Cc3ccccc3)c21 ? > 100 µM (inactive)

Would you kindly share the measured GI50 for COC(=O)[C@@H](NC(=O)[C@H](N)Cc1ccc(N(CCCl)CCCl)cc1)C(C)C ? 32.7 µM (inactive)

Give its GI50 value. Item: O=[N+]([O-])c1ccccc1CSc1nc(O)c2nc[nH]c2n1 63.8 µM (inactive)

Item CC(=O)NNc1nc(C)c(C(/C=C/c2ccc(Cl)cc2)=N/NC(=S)NN)s1 has what recorded GI50? > 100 µM (inactive)

Name the recorded GI50 for CC(C)C(Sc1nc(-c2ccccc2)c(-c2ccccc2)[nH]1)C(=O)NN (stereo unspecified) . > 100 µM (inactive)

Entry CC1(C)O[C@@H](CBr)C[C@H](C[C@H]2C[C@@H](O)C[C@@H](CCOCc3ccccc3)O2)O1 has what GI50? 18.1 µM (inactive)

I would be grateful if you could share the reported GI50 for CCOC(=O)/C=C1/Oc2ccccc2C1(C)O (stereo unspecified) . > 100 µM (inactive)

Need GI50 of CNC(=O)N1CN(c2ccccc2)C2(CCN(CCCC(=O)c3ccc(F)cc3)CC2)C1=O , thanks. 31.8 µM (inactive)

###

test system: NCI-H522; test: NCI tumour cell line growth inhibition, 48 h
Calls of active or inactive are those of the source. No stated cut-off is given here; in the data, active = GI50 up to about 1.1 µM and inactive = higher.
Hello, when you answer, please use one of the following outcomes: TRUE for active, FALSE for inactive

Write down the call the test reported for this molecule. Item: CN1CCCC2C(c3ccccc3)C(C3=NCCCC3)C(c3ccccc3)CC21 (centres undefined) FALSE

Tell me the assay call for Cc1c(Cl)cccc1NC(=O)C(=O)C1C(=O)NC(=O)NC1=O please. FALSE

Identify the outcome logged in this assay for the molecule shown: O=[N+]([O-])c1cc(-[n+]2cc([O-])on2)ccc1F FALSE

###

system: SK-MEL-5; assay: NCI tumour cell line growth inhibition, 48 h
Calls of active or inactive are those of the source. No stated cut-off is given here; in the data, active = GI50 up to about 1.1 µM and inactive = higher.
readout.kind: GI50

Example results:
molecule: CN(C)c1ccc(/C=C2\N=C(c3ccccc3)N(c3ccc4c(c3)Sc3cc(N5C(=O)/C(=C/c6ccc(N(C)C)cc6)N=C5c5ccccc5)ccc3N4)C2=O)cc1
GI50: 17.9 µM (inactive)
--
molecule: Cc1ccc(C2=C(c3ccccc3)C(=O)C(c3ccccc3)=C2c2ccc(C)cc2)cc1
GI50: 55.1 µM (inactive)
--
molecule: C1COC2SC3=C(SC(=C4SC5=C(SCCS5)S4)S3)SC2O1 (stereo not given)
GI50: 80.2 µM (inactive)
--
molecule: N#Cc1ccccc1NC(=O)/C(=N\NC(=O)c1ccncc1)C(c1cnc2ccc([N+](=O)[O-])cc2n1)[N+](=O)[O-] (stereo not given)
GI50: 63.7 µM (inactive)

Any idea what GI50 was measured for O=C(C/N=C(\CN(c1ccccc1)c1ccccc1)Oc1c(Cl)cc(Cl)cc1Cl)n1cnc2ccccc21 ? 76 µM (inactive)

Consider the molecule CC(=O)OC/C=C\Cn1ncc(=O)[nH]c1=O and give its measured GI50. 12.6 µM (inactive)

Item C[C@]12Cc3cnc(-c4ccccc4)nc3C[C@@H]1CC[C@@H]1[C@@H]2CC[C@@]2(C)[C@H]1CC[C@]2(C)O has what recorded GI50? 17.7 µM (inactive)

Would you mind telling me what GI50 value was observed for CCOCCOc1ccc(OCCOCC)cc1 ? 22.4 µM (inactive)

###

In this section we review reported GI50 values for a set of compounds.
test system: EKVX; assay: NCI tumour cell line growth inhibition, 48 h
Activity calls are given as the source filed them. Cut-off read from the data, not from the text of the source: active = GI50 up to about 1.1 µM and inactive = higher.

Recorded results for 7 compounds are shown here.
compound: NC(=O)c1ccccc1NC(=O)C(=O)C(C(=O)c1ccc2ccccc2c1)C1OC(=O)c2ccccc21 (stereo not drawn)
readout.kind: GI50
test.value: 26.5 µM (inactive)
//
compound: [O-][n+]1cc(SCc2ccccc2)ncc1SCc1ccccc1
readout.kind: GI50
test.value: > 10 µM (inactive)
//
compound: CC1(C)OC[C@@H](/C=C\CCO[Si](c2ccccc2)(c2ccccc2)C(C)(C)C)N1C(=O)c1ccccc1
readout.kind: GI50
test.value: 5.75 µM (inactive)
//
compound: CC(=O)OC1CCCn2c1nc1c2C(=O)C(C)=C(N2CC2)C1=O (stereo not drawn)
readout.kind: GI50
test.value: 0.721 µM (active)
//
compound: Cc1ccc(N2C[N+](c3ccccc3)=NC(c3ccccc3)=N2)cc1
readout.kind: GI50
test.value: 32.4 µM (inactive)
//
compound: NC(Cc1ccc(S(=O)(=O)O)cc1)C(=O)NC(CCCCNC(=O)NCCCCC(NC(=O)C(N)Cc1ccc(S(=O)(=O)O)cc1)C(=O)NC(Cc1ccc(S(=O)(=O)O)cc1)C(=O)O)C(=O)NC(Cc1ccc(S(=O)(=O)O)cc1)C(=O)O (stereo not drawn)
readout.kind: GI50
test.value: > 100 µM (inactive)
//
compound: Cc1ccc(C(=C2Sc3ccccc3S2)C(=C2Sc3ccccc3S2)c2ccc(C)s2)s1
readout.kind: GI50
test.value: > 100 µM (inactive)

Now examine the next entry.
Could you share which GI50 value was measured for COc1ccc(/C(Cl)=C(\C=O)c2ccc(OC)cc2)cc1 ? > 100 µM (inactive)

###

test system: HOP-62; assay: NCI tumour cell line growth inhibition, 48 h
Active and inactive are the calls of the source. Rule as the data show it: active = GI50 up to about 1.1 µM and inactive = higher.
Form entry, call: pick from active, inactive

Recorded results for 6 compounds are shown here.
compound: CN(N=O)c1ccc(/C=C/c2ccnc3ccccc23)cc1
group: inactive
--
compound: O=C1CCC2(O)C3Cc4ccc(Oc5nnnn5-c5ccccc5)c5c4C2(CCN3CC2CC2)C1O5 (stereo not drawn)
group: inactive
--
compound: O=C(O)c1cc2c(cc1CC(Cc1ccccc1)C(=O)O)CCC2 (stereo not drawn)
group: inactive
--
compound: O=C1C=Cc2ncccc2C1=O
group: inactive
--
compound: CC1=C(/C=C/C(C)=C/C=C/C(C)=C/C(=O)Nc2ccc(O)cc2)C(C)(C)CCC1 [FENRETINIDE]
group: inactive
--
compound: c1csc(C[N+]23CN4CN(CN(C4)C2)C3)c1
group: inactive

Entry C1COC2SC3=C(SC(=C4SC5=C(SCCS5)S4)S3)SC2O1 (stereo not drawn) : call = ? inactive

What did the test return for CC(Cc1ccc(O)c(O)c1)C(C)Cc1ccc(O)c(O)c1 (stereo not drawn) [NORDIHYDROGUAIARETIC ACID] ? inactive

Write down the call the test reported for this compound. Item: C[C@]12CC[C@@H]3c4ccc(O)cc4CC[C@H]3[C@@H]1C/C(=C\c1ccc([N+](=O)[O-])cc1)C2=O inactive

State the result this test recorded for Cc1c(Cl)ccc2c1NC(=O)C2(O)C1Cc2ccccc2C1=O (stereo not drawn) . inactive

Please state the recorded outcome for this compound: Cc1cn(Cc2cccc(C3=NCCCN3)c2)c(=O)n(Cc2cccc(C3=NCCCN3)c2)c1=O inactive

Hello, I am checking results. What call was entered for COC(=O)C1=CC2C(=O)c3ccccc3C1(c1ccccc1)N2C1CCCCC1 (stereo not drawn) ? inactive

Just curious, what result did Nc1cc2[nH]c(=O)c3cc(Cl)ccc3c2cc1Cl get here? inactive

What did the test return for COc1ccc([C@@H]2CC(=O)N2)cc1 ? inactive
